# maps each entry to its MIC
# System: E. coli NCTC 13351
# Experiment Summary: Antibacterial activity (MIC), agar dilution per CLSI
# Type: cell-based
# Measurement Setup: Escherichia coli, NCTC13351, Table 3, E. coli NCTC 13351 expressing ESBL, 16-20 hours, 35±2° C., read-out: MIC
In your response, the unit should come after the numeric value.

- Compound: "O=C(NNC(=O)[C@H]1CC[C@@H]2CN1C(=O)N2OS(=O)(=O)O)C1CNC1 (relative stereo)"
  Reading: "1 µg/mL"

Input line: Output measured MIC for this item: CO[C@H]1CN[C@H](C(=O)NNC(=O)[C@H]2CC[C@@H]3CN2C(=O)N3OS(=O)(=O)O)C1 (mixture of isomers)
Output line: 1 µg/mL

Input line: # return recorded MIC for input NCCCC(=O)NNC(=O)[C@H]1CC[C@@H]2CN1C(=O)N2OS(=O)(=O)O (relative stereo)
Output line: 1 µg/mL

====

The reader will find reported MIC values listed item by item below.
# System: K penumoniae H 523
# Experiment Summary: Antibacterial activity (MIC) against MDR Gram negative strains
# Format: cell-based
# Measurement Setup: Table 4; K penumoniae H 523, KPC ESBL, MDR; read-out: MIC
# Method: The biological activity of representative compounds according to the invention against various bacterial strains was investigated. In a typical study, overnight grown bacterial cultures were diluted appropriately and inoculated on the agar media containing doubling dilutions of the test compounds. Observation for growth or no growth was performed after 16-20 hours of incubation at 35±2° C. in ambient air. […] The activities are expressed as MICs (mcg/ml).
Unit µg/mL implied. Number only.

Take a look at these entries with their results.
- Compound: "O=C(NNC(=O)[C@H]1CCCN1)[C@H]1CC[C@@H]2CN1C(=O)N2OS(=O)(=O)O (mixture of isomers) [Example 30]"
  MIC [µg/mL]: 8
- Compound: "O=C(NNC(=O)[C@H]1CC[C@@H]2CN1C(=O)N2OS(=O)(=O)O)[C@@H]1C[C@H](F)CN1 (mixture of isomers) [Example 11]"
  MIC [µg/mL]: 2
- Compound: "N#CCC(=O)NNC(=O)[C@@H]1CC[C@@H]2CN1C(=O)N2OS(=O)(=O)[O-].[Na+] [Example 43]"
  MIC [µg/mL]: 1
- Compound: "O=C(O)c1cn(C2CC2)c2cc(N3CCNCC3)c(F)cc2c1=O [Ciprofloxacin, reference compound]"
  MIC [µg/mL]: 8

Input line: Identify measured MIC associated with NCCCC(=O)NNC(=O)[C@H]1CC[C@@H]2CN1C(=O)N2OS(=O)(=O)O (relative stereo) [Example 9]
Output line: 0.5
